Molecular target: Grp94 (Canis lupus familiaris, UniProt P41148)
Sequence (P41148 with tags, fused parts or gaps DELINS287-327GGGG): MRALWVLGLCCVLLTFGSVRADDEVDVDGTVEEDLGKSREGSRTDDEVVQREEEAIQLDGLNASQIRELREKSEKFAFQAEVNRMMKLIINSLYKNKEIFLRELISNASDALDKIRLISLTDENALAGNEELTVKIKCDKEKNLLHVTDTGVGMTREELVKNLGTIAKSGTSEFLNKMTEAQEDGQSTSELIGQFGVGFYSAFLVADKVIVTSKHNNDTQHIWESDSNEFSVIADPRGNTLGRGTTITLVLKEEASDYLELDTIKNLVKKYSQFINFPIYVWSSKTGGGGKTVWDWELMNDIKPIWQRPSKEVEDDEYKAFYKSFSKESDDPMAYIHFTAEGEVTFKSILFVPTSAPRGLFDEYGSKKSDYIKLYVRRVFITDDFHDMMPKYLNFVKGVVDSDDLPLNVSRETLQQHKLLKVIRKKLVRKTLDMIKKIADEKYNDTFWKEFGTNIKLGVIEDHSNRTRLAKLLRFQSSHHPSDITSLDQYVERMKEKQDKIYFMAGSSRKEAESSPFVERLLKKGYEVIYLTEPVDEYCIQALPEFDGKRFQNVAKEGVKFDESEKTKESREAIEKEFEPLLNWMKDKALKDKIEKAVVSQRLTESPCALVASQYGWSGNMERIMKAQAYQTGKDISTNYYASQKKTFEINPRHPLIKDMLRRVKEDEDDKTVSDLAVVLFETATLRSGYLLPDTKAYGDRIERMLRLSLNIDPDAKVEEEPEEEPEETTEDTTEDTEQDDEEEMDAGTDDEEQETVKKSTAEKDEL
Conditions: read-out: Grp94; FP competition, 6 nM Cy3B-GM, 10 nM protein, 4° C. for 24 h
In this section we review reported pIC50 values for a set of compounds.
Answer as the number alone; pIC50 is minus log10 of concentration in mol/L.

Past entries and their recorded results:
Nc1ncnc2c1nc(Sc1cc(Cl)cc(Cl)c1)n2CCCCC(F)(F)F [PDP-109A]
5.95
C#CCCn1c(Sc2cc(Cl)cc(Cl)c2)nc2c(N)ncnc21
6.57
CC(C)NCCCn1c(Sc2cc(Cl)cc(C#CCO)c2)nc2c(N)ncnc21
5.24
Nc1ncnc2c1nc(Sc1ccc(Cl)cc1Cl)n2CCc1ccccn1
5.72

Give a short answer stating reported pIC50 for "CC(C)NCCCn1c(Sc2cc(Cl)c(Cl)cc2Cl)nc2c(N)ncnc21" .
6.46

Give a short answer stating reported pIC50 for Nc1ncnc2c1nc(Sc1cc(Cl)cc(Cl)c1)n2CCCn1ccnc1 [SO-III-103A] .
6.69

Give a short answer stating reported pIC50 for "Nc1ncn(CCC(F)(F)F)c2nc(Sc3cc(Cl)cc(Cl)c3)nc1-2" .
4.89

Give a short answer stating reported pIC50 for C#CCCCn1c(Sc2cccc(Cl)c2Cl)nc2c(N)ncnc21 [PDP-119A] .
5.71

Give a short answer stating reported pIC50 for "C=Cc1cc(Cl)cc(Sc2nc3c(N)ncnc3n2CCCNC(C)C)c1" .
6.20

----------
Molecular target: Grp94 (Canis lupus familiaris, UniProt P41148)
Settings: read-out: Grp94; FP competition, 6 nM Cy3B-GM, 10 nM protein, 4° C. for 24 h
In this section we review reported IC50 values for a set of compounds.

Past entries and their recorded results:
C#CCCCn1c(C(=O)c2ccc(Cl)cc2Cl)nc2c(N)ncnc21 [HJP-V-37T]
0.13 to 0.17 µM
C#CCCCn1cnc(N)c2nc(Sc3cccc4ccccc34)nc1-2
> 5 µM

Give a short answer stating reported IC50 for "CC(C)NCCCn1c(Sc2ccc(Cl)cc2Cl)nc2c(N)nccc21" .
> 5 µM

----------
Target: Hsp90β (Homo sapiens)
Sequence (P08238 whole entry): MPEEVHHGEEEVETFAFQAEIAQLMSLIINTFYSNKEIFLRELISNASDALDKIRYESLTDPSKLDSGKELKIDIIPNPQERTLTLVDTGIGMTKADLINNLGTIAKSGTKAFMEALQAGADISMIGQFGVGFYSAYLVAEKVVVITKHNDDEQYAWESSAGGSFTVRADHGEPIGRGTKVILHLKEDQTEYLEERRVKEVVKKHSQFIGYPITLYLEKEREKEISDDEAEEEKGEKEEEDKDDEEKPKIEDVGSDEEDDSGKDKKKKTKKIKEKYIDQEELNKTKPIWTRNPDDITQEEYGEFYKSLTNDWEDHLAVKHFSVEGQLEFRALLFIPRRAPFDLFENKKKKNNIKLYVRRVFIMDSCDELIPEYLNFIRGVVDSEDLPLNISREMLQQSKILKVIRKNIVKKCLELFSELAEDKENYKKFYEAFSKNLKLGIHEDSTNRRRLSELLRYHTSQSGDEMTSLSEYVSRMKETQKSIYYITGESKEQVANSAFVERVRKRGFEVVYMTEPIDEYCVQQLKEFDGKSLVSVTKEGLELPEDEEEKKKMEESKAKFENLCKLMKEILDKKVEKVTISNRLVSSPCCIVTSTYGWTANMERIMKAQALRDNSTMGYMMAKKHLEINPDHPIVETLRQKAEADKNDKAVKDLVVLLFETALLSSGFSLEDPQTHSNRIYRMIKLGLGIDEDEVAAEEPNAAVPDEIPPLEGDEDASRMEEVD
pIC50: −log10 of the molar value.
readout.type: pIC50

C#CCCCn1c(Sc2cc(Cl)ccc2C(F)(F)F)nc2c(N)ncnc21
5.19
C#CCCCn1c(Sc2cc(C)cc(C)c2)nc2c(N)ncnc21
< 3.52
Nc1ncn(CCCCCC(F)(F)F)c2nc(Sc3cc(Cl)cc(Cl)c3)nc1-2 [PDP-101A]
< 4.00

Report value: pIC50, system: Hsp90β (Homo sapiens), molecule: "C#CCCn1c(Sc2cc(Cl)cc(Cl)c2)nc2c(N)ncnc21"
< 4.00

----------
In this section we review reported pIC50 values for a set of compounds.
Target: Hsp90α (Homo sapiens, UniProt P07900)
Experiment: biochemical
Settings: FP competition, 6 nM Cy3B-GM, 10 nM protein, 4° C. for 24 h
pIC50: −log10 of the molar value.

Past entries and their recorded results:
CC(C)NCCCn1c(Sc2ccc(Cl)cc2N)nc2c(N)ncnc21
< 4.30
Cc1ccc(Sc2nc3c(N)ncn(CCCNC(C)C)c-3n2)c(C)c1
< 4.00
C#CCCCn1cnc(N)c2nc(Sc3ccc(Cl)c4ccccc34)nc1-2
< 4.30
C#CCCCn1cnc(N)c2nc(Sc3ccc(Cl)c(Cl)c3Cl)nc1-2 [PDP-126B]
< 4.00
C#CCCCn1c(Sc2cc(Cl)c(Cl)c(Cl)c2)nc2c(N)ncnc21
< 4.00

Give a short answer stating reported pIC50 for "C#CCCCn1c(Sc2ccc(Br)cn2)nc2c(N)ncnc21" .
5.66

Give a short answer stating reported pIC50 for "C#CCCn1c(Sc2cc(Cl)cc(Cl)c2)nc2c(N)ncnc21" .
< 4.00

Give a short answer stating reported pIC50 for "C#CCCCn1c(Sc2ccc(C#N)c(C(F)(F)F)c2)nc2c(N)ncnc21" .
5.35

Give a short answer stating reported pIC50 for CN1CCN(CCn2c(Sc3cc(Cl)cc(Cl)c3)nc3c(N)ncnc32)CC1 [SO-III-39A] .
4.28

Give a short answer stating reported pIC50 for "CC(C)=Cc1cc(Cl)cc(Sc2nc3c(N)ncnc3n2CCCNC(C)C)c1" .
< 4.30
